assay: Stability in rat brain after 60 mins; type: ADME, tissue-based; details: read-out: Stability
quantity_kind: remaining at 1 h (%)
Please reply with the bare figure in % and do not write the unit itself.

Data request: Reported remaining at 1 h, compound CN(C)c1ccc(-c2cn3cc(S[11CH3])ccc3n2)cc1 : ____
Data returned: 93.6

====

assay: Stability in monkey whole blood after 30 mins; assay type: ADME, tissue-based, Macaca mulatta; conditions: rhesus monkey, read-out: Stability
quantity_kind: remaining at 0.5 h (%)
# value in %; strip the unit string

Data request: Quick check: remaining at 0.5 h of CN(C)c1ccc(-c2cn3cc(S[11CH3])ccc3n2)cc1 ?
Data returned: 96.2

====

test: Stability in monkey whole blood after 90 mins; assay type: ADME, tissue-based, Macaca mulatta; settings: rhesus monkey, read-out: Stability
quantity_kind: remaining at 1.5 h (%)
Supply the numeric figure in %, leaving out any unit text.

Data request: Give the measured remaining at 1.5 h of CN(C)c1ccc(-c2cn3cc(S[11CH3])ccc3n2)cc1 .
Data returned: 94.5

====

assay: Stability in rat whole blood after 60 mins; assay type: ADME, tissue-based; settings: read-out: Stability
quantity_kind: remaining at 1 h (%)
Expressed in %, but write only the number.

Data request: Sample CN(C)c1ccc(-c2cn3cc(S[11CH3])ccc3n2)cc1 — what was its remaining at 1 h?
Data returned: 91

====

experiment: Lipophilicity, log D at pH 7.4; type: physicochemical; conditions: buffer
quantity_kind: logD
Write no unit; give the number alone.

Data request: So what does the record say about logD for CNc1ccc(-c2cn3cc(SC)ccc3n2)cc1 ?
Data returned: 3.6

Data request: Quick one: logD of CN(C)c1ccc(-c2cn3cc(I)ccc3n2)cc1 ?
Data returned: 3.58

Data request: Give its logD value. Item: COC(=O)CCSc1ccc2nc(-c3ccc(N(C)C)cc3)cn2c1
Data returned: 3.6

Data request: logD for CSc1ccc2nc(-c3ccc(N(C)C)cc3)cn2c1 ?
Data returned: 4.1

Data request: If you can, please state the reported logD value of CSc1ccc2nc(-c3ccc(N)cc3)cn2c1 .
Data returned: 2.6

====

quantity_kind: Ki (nM)
Please state the figure in nM; there is no need to write the unit.

Data request: What value of Ki on UniProtKB P05067 does CNc1ccc(-c2cn3cc(SC)ccc3n2)cc1 have?
Data returned: 80
